- tested system: TF/FVIIa (Homo sapiens, UniProt P08709)
- Sequence (P08709 213-466 limits assumed): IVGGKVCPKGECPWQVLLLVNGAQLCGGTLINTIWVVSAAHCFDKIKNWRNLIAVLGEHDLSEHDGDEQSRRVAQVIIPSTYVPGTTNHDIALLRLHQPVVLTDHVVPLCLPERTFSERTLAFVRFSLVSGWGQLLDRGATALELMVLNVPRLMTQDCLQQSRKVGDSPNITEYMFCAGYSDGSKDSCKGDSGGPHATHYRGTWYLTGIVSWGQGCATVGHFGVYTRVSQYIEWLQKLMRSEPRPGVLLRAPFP
- Sequence (P08709 61-212 partner limits assumed): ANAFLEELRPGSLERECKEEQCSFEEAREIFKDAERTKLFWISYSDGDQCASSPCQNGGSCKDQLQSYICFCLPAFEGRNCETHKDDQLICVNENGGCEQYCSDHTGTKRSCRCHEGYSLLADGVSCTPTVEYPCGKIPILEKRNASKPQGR
- Sequence (P13726 33-295 partner): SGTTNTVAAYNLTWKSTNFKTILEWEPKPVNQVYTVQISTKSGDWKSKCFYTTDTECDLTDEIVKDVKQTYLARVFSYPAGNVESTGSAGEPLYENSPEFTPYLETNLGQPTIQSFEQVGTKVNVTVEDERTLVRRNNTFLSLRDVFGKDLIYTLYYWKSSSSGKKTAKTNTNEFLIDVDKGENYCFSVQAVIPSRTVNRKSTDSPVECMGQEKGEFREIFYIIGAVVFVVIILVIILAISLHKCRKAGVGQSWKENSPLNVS
- protocol: TF/FVIIa inhibition (TF/FVIIa-IC50)
Structures can show the parent of a compound that is named as a salt.
property: IC50 (nM)
Give the number; nM is assumed, so skip it.

In one line, give reported IC50 of the entry N=C1CCCCN1c1ccc(NC(=O)[C@H](OC(=O)Nc2ccc(Cl)cc2)c2ccccc2)cc1 [AB, hydrochloride] .
99

Read the entry CON=C1CCCCN1c1ccc(NC(=O)[C@H](OC(=O)Nc2ccc(Cl)cc2)c2ccccc2)cc1 and write its reported IC50.
290

Identify IC50 associated with the compound Cc1cc(NC(=O)[C@H](NC(=O)Nc2ccc(Cl)cc2)c2ccccc2)ccc1N1CCCC1=N [BA, hydrochloride]
490
